- Test system: SK-MEL-28 melanoma
- PROTOCOL_NOTES: NCI tumour cell line growth inhibition, 48 h
Listed here: items and their measured TGI.

MOLECULE	TGI
Cc1ccc(-c2nc(-c3cn(C)c4ncccc34)cs2)cc1	26.4 µM

Tell me the measured TGI of C[N+]1(CCC[N+]2(C)CC3C4C=CC(CC4)C3C2)CCOCC1 (stereo not given) , please.
> 100 µM

Which TGI reading was recorded for the molecule NCCCCCCNCc1cccc2ccccc12 ?
> 100 µM

Please report the recorded TGI for CC1=C[C@H]2C[C@H](C)[C@H]3CC[C@H](C)[C@]4(C1)C(=O)C(O)=C(C)C(=O)[C@@]324 .
> 100 µM

// query TGI value for entry CCn1c2ccccc2c2ccc(C3C(C(=O)OC)=C(C)NC(C)=C3C(=O)OC)cc21
> 100 µM

* * *

- Tested on: SK-MEL-28 melanoma
- PROTOCOL_NOTES: NCI tumour cell line growth inhibition, 48 h
READOUT_NAME: TGI

Some solved entries appear below for comparison.
COMPOUND	TARGET	TGI
N#CN1CC[C@H](C(=O)Nc2cc3cc(C(N)=O)ccc3cn2)C1	SK-MEL-28 melanoma	9.41 µM
Cc1cccc(NC(=O)/C=C/c2ccc([N+](=O)[O-])cc2)c1	SK-MEL-28 melanoma	> 57.6 µM
O=C(NCc1ccco1)c1cccc(NC2=C(Cl)C(=O)N(Cc3ccccc3)C2=O)c1	SK-MEL-28 melanoma	46.6 µM
COc1ccccc1NCc1cccc2c(=O)c3ccc(Cl)cc3oc12	SK-MEL-28 melanoma	> 100 µM
COc1cccc(/C(C)=N/NC(=O)CSc2nc3ccccc3c(=O)n2CCc2ccc(S(N)(=O)=O)cc2)c1	SK-MEL-28 melanoma	38.7 µM
Cc1cccc2c(N)c3cccc(C(=O)NCC[N+]4(Cc5ccc([N+](=O)[O-])cc5)CCOCC4)c3nc12	SK-MEL-28 melanoma	> 100 µM
COc1ccc(C2C3CCCC(C3=O)C(c3ccc(OC)cc3)N2N=O)cc1 (centres undefined)	SK-MEL-28 melanoma	> 100 µM
c1ccc([As]=[As]c2ccccc2)cc1 (centres undefined)	SK-MEL-28 melanoma	2.32 µM

May I ask what TGI has been recorded for COc1c2c(cc3c1C1(O)Cc4ccc5c(c4C[N+]1(C)CC3)OCO5)OCO2 (centres undefined) ?
> 100 µM

Any idea what its TGI is? The compound is O=S(=O)(/N=C(\NO)Nc1ccc(Cl)cc1)c1ccccc1
33.9 µM

Please give the measured TGI for this compound: COc1ccc(/C=C\c2cc(OC)c(OC)c(OC)c2)cc1OCC(=O)Nc1ccc2nc(C)sc2c1
13.1 µM

Look up TGI: c1ccc(P(=C2c3ccccc3-c3ccccc32)(c2ccccc2)c2ccccc2)cc1
20.2 µM

State the recorded TGI for this entry: N#C/C(N)=C(\C#N)N=CNc1ccc(N)cc1
> 100 µM

For the compound shown here, O=c1[nH]c(=O)n(C2CC(O)C(CO)O2)cc1C#Cc1ccc(F)cc1 (centres undefined) , give the reported TGI.
> 100 µM

Would you mind telling me what TGI value was observed for C=CCCCCOC1C=CC(O)C(CO)O1 (centres undefined) ?
> 100 µM

Which TGI value is on record for CNS(=O)(=O)OCC1OC(n2cnc3c(N)ncnc32)C(O)C1O (centres undefined) ?
> 100 µM

Requested read-out: TGI. Entry: COc1cc(C2C3=C(COC3=O)N(CCO)c3cc4c(cc32)OCO4)cc(OC)c1O (centres undefined)
> 50 µM

Endpoint output: TGI of COC(=O)/C=C\C(C#N)(C#N)N=Cc1sccc1C . Value?
20.1 µM

Report TGI for CNC(=O)OC(COC)CN1CCN(c2ccccc2C)CC1 (centres undefined) please.
> 10 µM

What does the data say about its TGI? Entry: CSCCCNC(=O)c1csc(-c2csc(CCNC(=O)CNC(=O)CNC(=O)OC(C)(C)C)n2)n1
> 100 µM

Consider the compound shown here: COc1ccc(N2C(=O)C3c4[nH]c5ccc(F)cc5c4C4CCC(C(C)(C)C)CC4C3C2=O)cc1 (centres undefined) What is its recorded TGI?
> 10 µM

Entry under review: O=C(O)c1ccc(Nc2nc3cc(C(F)(F)F)ccc3n3cccc23)cc1 . Reported TGI?
> 100 µM

Can you share its TGI? I mean this compound: COc1ccc(C(=O)N/N=C/c2c(C)n(C)n(-c3ccccc3)c2=O)cc1
> 100 µM

Name the recorded TGI for CO[C@@H]1C[C@H](OC(N)=O)[C@@H]2C=C[C@@H]3/C=C(C)/C=C/[C@@H](C)[C@H](/C(C)=C/[C@@H](C)NC(C)=O)OC(=O)/C=C/C=C(C)\C=C\[C@]3(C)[C@@H]2C1 .
0.458 µM

Could you share which TGI value was measured for CCn1c(=O)c2nc(SC)sc2n(-c2ccccc2)c1=O ?
> 100 µM

Item CCN1C[C@]2(COC)[C@H](O)C[C@H](OC)[C@]34C1[C@H]([C@H](OC)[C@H]23)[C@]1(OC(C)=O)[C@H]2[C@@H](OC(=O)c3ccccc3)[C@](O)(C[C@H]24)[C@@H](OC)[C@@H]1O has what recorded TGI?
> 100 µM

Report TGI for CCCCCCCC(=O)OCC(=O)[C@]1(O)Cc2c(O)c3c(c(O)c2[C@@H](OC2CC(N)C(O)C(C)O2)C1)C(=O)c1c(OC)cccc1C3=O (some centres undefined) please.
0.902 µM

State the recorded TGI for this entry: C=CCOc1ccccc1C1(O)c2ccccc2C2=NCCCN21 (centres undefined)
52.2 µM

What measured TGI goes with CCS(=O)(=O)c1ccc(OC)c(Nc2ncc(-c3ccccc3Cl)o2)c1 ?
> 25 µM

Any idea what TGI was measured for CC[P+]1(c2ccccc2)[C@@H](C)CC[C@@H]1C ?
> 100 µM

Look up TGI: O=C1CSC2=NC3=C(CSC/C3=C\c3ccccc3)C(c3ccccc3)N12 (centres undefined)
> 100 µM

Would you kindly share the measured TGI for ClCc1cccc(CSc2ncnc3c2ncn3Cc2cccc(CCl)c2)c1 ?
3.08 µM

* * *

Measured TGI of individual entries
- Tested on: XF 498 CNS
- PROTOCOL_NOTES: NCI tumour cell line growth inhibition, 48 h

Use these answered entries as a reference point.
COMPOUND	TGI
O=C(OC/C=C1C=C(OC(=O)c2ccccc2)/C(=N/N(C(=O)c2ccccc2)c2ccccc2)O\1)c1ccccc1	33.7 µM
O=C(C/C(CCC(=O)N(Cc1ccccc1)Cc1ccccc1)=N/Nc1ccc([N+](=O)[O-])cc1[N+](=O)[O-])c1ccccc1	> 100 µM
CC(=O)N(O)Cc1ccccc1	> 100 µM

// moving on: another record for TGI
Suppose we examine the compound O=C1C2C3C=C4c5ccccc5N(c5ccccc5)C4(C2C(=O)N1c1ccc(Br)cc1)[C@H]1C(=O)N(c2ccc(Br)cc2)C(=O)[C@@H]31 (some centres undefined) ; what TGI value has been reported?
> 100 µM

* * *

- System: SR leukemia
- PROTOCOL_NOTES: NCI tumour cell line growth inhibition, 48 h
This listing pairs molecules with measured TGI.

MOLECULE	TGI
COP(=O)(OC)/C(=C/c1cn(C(c2ccccc2)(c2ccccc2)c2ccccc2)cn1)NC=O	> 100 µM
CN(C)c1ccc(C(c2ccc(Cl)cc2)c2ccc(N(C)C)cc2)cc1	> 100 µM
C=CCc1cc(C(Cc2ccccc2)NC(C)C)cc(OCc2ccccc2)c1OCc1ccccc1 (stereo not drawn)	28.5 µM
Cc1cnc(Nc2ccc(N3CCN(C)CC3)cc2)nc1Nc1ccc(Cl)c(NS(=O)(=O)C(C)(C)C)c1	6.26 µM

Lab request: please report TGI under test system SR leukemia for COc1cccc2cc(C(C)=O)c(=O)oc12
> 100 µM

What value of TGI on SR leukemia does CCn1c(=O)c2nc(SC)sc2n(-c2ccccc2)c1=O have?
> 100 µM

Lab note: need TGI with SR leukemia for entry CCN1C[C@]2(COC)[C@H](O)C[C@H](OC)[C@]34C1[C@H]([C@H](OC)[C@H]23)[C@]1(OC(C)=O)[C@H]2[C@@H](OC(=O)c3ccccc3)[C@](O)(C[C@H]24)[C@@H](OC)[C@@H]1O , please look it up.
> 100 µM

* * *

- Tested on: HL-60(TB) leukemia
- PROTOCOL_NOTES: NCI tumour cell line growth inhibition, 48 h
Form field: TGI (one value per entry).

Some compounds with known TGI results, for comparison:
COMPOUND	TGI
O=C(CC(=O)c1cccc(Cl)c1)c1cccc(Cl)c1	> 100 µM
CNC(=O)OC(COC)CN1CCN(c2ccccc2C)CC1 (stereo not given)	> 10 µM
COc1cccc2cc(C(C)=O)c(=O)oc12	> 100 µM
C[N+]1(CCC[N+]2(C)CC3C4C=CC(CC4)C3C2)CCOCC1 (stereo not given)	> 100 µM
COc1ccc2nc3n(c2c1)C(=O)c1ccccc1-3	> 100 µM
C[C@]12CCNC(=O)C=C1CC[C@@H]1C2CC[C@@]2(C)C1CC[C@@H]2OC(=O)COc1ccc(N(CCCl)CCCl)cc1 (stereo not given in full)	7.4 µM

I am curious: what TGI value has been reported for CN(C)c1ccc(/C=c2/c3ccccc3n3c2c2cc(F)ccc2[n+]3C)cc1 ?
> 100 µM

Entry under review: Cc1cnc(Nc2ccc(N3CCN(C)CC3)cc2)nc1Nc1ccc(Cl)c(NS(=O)(=O)C(C)(C)C)c1 . Reported TGI?
1.02 µM

# lookup: TGI of CCCN1C(=O)/C(=C\c2ccc(OC)c(OC)c2)SC1=Nc1ccccc1
> 100 µM

For the compound COc1ccccc1NS(=O)(=O)c1ccc2oc(SC(C)C)nc2c1 , what TGI is on record?
29.1 µM
